Test system: BT-549 breast
Experiment: NCI-60 one-dose screen, 48 h (100 = growth as untreated, 0 = no growth, -100 = all killed)
Conditions: 10 µM
This is part of a sample that, as a whole, favours compounds with a hit. Of some 83,000 tested, about 20% had one in any assay. Activity calls are given as the source filed them. How the source made its calls: active means growth percent below 10; inactive means the rest.
For each record, write down the corresponding growth.

Answer with growth of CC[C@@]1(OC(=O)CN(C)C)C(=O)OCc2c1cc1n(c2=O)Cc2cc3c(N)cccc3nc2-1 measured for BT-549 breast.
-11.8% (active)

State measured growth of the molecule N#C/C(=C/N1C(=O)/C(=C/c2ccc([N+](=O)[O-])cc2)SC1=S)c1nc2ccccc2s1 with BT-549 breast.
84% (inactive)

# lookup: BT-549 breast growth, key = O=C1C(Cl)=C(Cl)C(Cl)(Cl)C(Cl)C1(Cl)Cl (stereo not given)
96.4% (inactive)

State growth on BT-549 breast. Entry: COc1cc(N)ccc1Nc1c2ccccc2nc2ccccc12
90% (inactive)

Print BT-549 breast growth for O=C1C=CC(=O)N1c1ccc(N2C(=O)C=CC2=O)cc1 .
89.6% (inactive)

###

System: MCF7 breast
Assay: NCI-60 one-dose screen, 48 h
Details: 10 µM
Description: Growth inhibition of the MCF7 human tumor cell line is measured as a screen for anti-cancer activity. Cells are grown in 96 well plates and exposed to the test compound for 48 hours. Compounds are tested at a single concentration, which is 10^-5 M for most compounds. The reported endpoint is percent growth (GI% or GIPRCNT), where numbers from 0 - 100% represent growth inhibition, and numbers from -100% - 0 represent cell death. For example, a value of 40 represents 60% growth inhibition. […]
This is part of a sample that, as a whole, favours compounds with a hit. Of some 83,000 tested, about 20% had one in any assay. Activity calls are given as the source filed them. Rule for the calls: active = growth percent below 10; inactive = the rest.
Respond with a class label; see active, inactive

Hi, sorry to bother you, what did the test record for NCc1c(O)ccc2ccccc12 ?
inactive

Please share the test call associated with COc1ccc2c(c1)[nH]c1c(/C=C/c3ccccc3)nccc12 .
inactive

Hi, sorry to bother you, what did the test record for ClCCn1c(CCl)nc2ccc(Cl)cc21 ?
active

// param item: O=C(O)c1ccccc1.[Ag] ; yields the recorded call
inactive

Could you kindly confirm the outcome this assay logged for COc1cc(N)ccc1Nc1c2ccccc2nc2ccccc12 ?
inactive

Each molecule tested received a call. Report the one for CCC(C)(c1ccc(O)c(C)c1)c1ccc(O)c(C)c1 .
inactive

I would be grateful if you could indicate the recorded call for CN(C)CCNc1cccc2sc3ccc(O)cc3c(=O)c12 .
inactive

Could you please tell me the result logged for O=C1C=CC(=O)N1c1ccc(N2C(=O)C=CC2=O)cc1 in this assay?
inactive

What outcome does the record of this test show for CC[C@@]1(OC(=O)CN(C)C)C(=O)OCc2c1cc1n(c2=O)Cc2cc3c(N)cccc3nc2-1 ?
active

Dear all, I need the recorded test outcome for O=C1c2ccccc2CCC1(Br)Br , thank you.
inactive

What outcome does the record of this test show for Cc1c(-c2ccccc2)[nH]c2ccccc12 ?
inactive

In this assay, the call recorded for Cc1cc(N=C2C=CC(=[N+](C)C)C=C2)c(N)cc1N was what?
inactive

What was the test verdict on S=C1SCN(CCc2ccccc2)CN1CCc1ccccc1 ?
inactive

Recorded test call requested for N#C/C(=C/N1C(=O)/C(=C/c2ccc([N+](=O)[O-])cc2)SC1=S)c1nc2ccccc2s1
inactive

###

System: MALME-3M melanoma
Test: NCI-60 one-dose screen, 48 h (100 = growth as untreated, 0 = no growth, -100 = all killed)
Conditions: 10 µM
Experimental: Cells are grown in 96 well plates and exposed to the test compound for 48 hours. Compounds are tested at a single concentration, which is 10^-5 M for most compounds. The reported endpoint is percent growth (GI% or GIPRCNT), where numbers from 0 - 100% represent growth inhibition, and numbers from -100% - 0 represent cell death. For example, a value of 40 represents 60% growth inhibition. A value of 0 means no net growth occurred over the course of the experiment. […]
Compounds without any hit were thinned out: in the full panel of roughly 83,000, 20% have a hit.
ENDPOINT: growth (%)
Report as a plain number; the unit % is understood.

Give me measured growth, please, for this molecule: O=C1c2ccccc2CCC1(Br)Br
-45.8

Write down growth measured for item O=C1C(Cl)=C(Cl)C(Cl)(Cl)C(Cl)C1(Cl)Cl (stereo not drawn)
99.9

Return value of growth for input COc1cc(N)ccc1Nc1c2ccccc2nc2ccccc12 , no commentary.
95.7

Return growth for the following molecule: CC1CCC2(C(=O)O)CCC3(C)C(=CCC4C5(C)CC(O)C(O)C(C)(CO)C5C(O)CC43C)C2C1C (stereo not drawn)
103

Specify growth for N#C/C(=C/N1C(=O)/C(=C/c2ccc([N+](=O)[O-])cc2)SC1=S)c1nc2ccccc2s1 and stop.
111

Return growth for the following molecule: CCC(C)(c1ccc(O)c(C)c1)c1ccc(O)c(C)c1
219

Quote growth reported for CN(CC(=O)O)c1ccc(/C=C/c2ccnc3ccccc23)cc1 please.
99.2

Please give the documented growth of O=C(CNS(=O)(=O)Cc1ccccc1)NNc1ccccc1
91.3

Consider the molecule O=C1C=CC(=O)N1c1ccc(N2C(=O)C=CC2=O)cc1 . State its measured growth.
85.7

Specify growth for Cn1ncc2cc3c(Nc4ccc(Cl)cc4)cccc3nc21 and stop.
122

Note growth for the molecule shown: O=C(NC(=S)Nc1ccccn1)c1ccccc1
82.6

// fetch growth given entry CCC(=O)Oc1ccc(/C=N/NC(N)=S)nc1
59

Identify measured growth associated with ClCCn1c(CCl)nc2ccc(Cl)cc21
-64.3

Specify reported growth for the molecule shown: COc1ccc2c(c1)[nH]c1c(/C=C/c3ccccc3)nccc12
69.2

Identify measured growth associated with Cc1cc(C)c(N2C(=O)CC(Sc3ccccc3N)C2=O)c(C)c1 (stereo not drawn)
77.5

Report growth, nothing else, for this molecule: Cc1cc(Cl)ccc1NC(=O)/C(Cl)=C1/Sc2ccccc2NC1=O
109

Report growth, nothing else, for this molecule: O=C1c2cccc3cc([N+](=O)[O-])cc(c23)C(=O)N1CCN1CCCC1
-26.4

// Input: C=C1N(C)c2ccc(Cl)cc2C1(C)C . Output its growth only.
66

Please report growth for the following molecule: NCc1c(O)ccc2ccccc12
96.6

Provide growth value for the following molecule: COc1ccc(N)c2c1C(=O)c1ccccc1C2=O
88.2

Tell me its growth given CC[C@@]1(OC(=O)CN(C)C)C(=O)OCc2c1cc1n(c2=O)Cc2cc3c(N)cccc3nc2-1 as the entry.
-23.9

Kindly indicate its recorded growth. Item: Cc1cc(O)c2c(c1O)C(=O)C13C(=C2O)C(=O)C2C(O)C1C1C(O)C3C(=O)C3=C(O)c4c(O)cc(C)c(O)c4C(=O)C321 (stereo not drawn)
-2.77

Give growth for O=C(O)c1ccccc1.[Ag]
119

###

System: ACHN renal
Test: NCI-60 one-dose screen, 48 h (100 = growth as untreated, 0 = no growth, -100 = all killed)
Conditions: 10 µM
About 83,000 compounds went through this panel and 20% of them were active in at least one assay; those are over-represented in the sample as a whole.
ENDPOINT: growth (%)
Give a bare numeral; the unit % is implied.

Specify reported growth for the molecule shown: Cc1cc(O)c2c(c1O)C(=O)C13C(=C2O)C(=O)C2C(O)C1C1C(O)C3C(=O)C3=C(O)c4c(O)cc(C)c(O)c4C(=O)C321 (stereo unspecified)
11.4

Complete the entry with growth for N#C/C(=C/N1C(=O)/C(=C/c2ccc([N+](=O)[O-])cc2)SC1=S)c1nc2ccccc2s1
86.5

Quickly give me recorded growth for O=Nc1ccc(Nc2ccccc2)cc1
41.5

Provide one value: measured growth of O=c1[nH]cc(/C=N\Nc2ccccc2)c(=O)[nH]1
40.3

Look up growth of CN(CC(=O)O)c1ccc(/C=C/c2ccnc3ccccc23)cc1 and report it.
89.1

Check the records and state growth for CC1CCC2(C(=O)O)CCC3(C)C(=CCC4C5(C)CC(O)C(O)C(C)(CO)C5C(O)CC43C)C2C1C (stereo unspecified)
116

Please give measured growth of the following entry: COc1ccc2oc(-c3ccc(Cl)cc3)c(N3CCN(C)CC3)c2c1
4.13

Tell us which growth value is on record for O=C(NC(=S)Nc1ccccn1)c1ccccc1
95.1

Give growth for the following molecule: CN(C)CCNc1cccc2sc3ccc(O)cc3c(=O)c12
14.9

Return growth for the following molecule: CCOC(=O)[C@]1(Br)CC[C@@]1(Br)C(=O)OCC
78.9

State, in one line, measured growth of COc1cccc(C(c2cc3c(cc2O)OCO3)N2CCOCC2)c1OC (stereo unspecified)
103

Supply growth value. Item: COc1ccc(C(C#N)=C2C=CC(=NO)C=C2)cc1
78.5

Give the reported value of growth for this record: Cc1cc(C)c(N2C(=O)CC(Sc3ccccc3N)C2=O)c(C)c1 (stereo unspecified)
87.7

Output growth of Cc1cc(Cl)ccc1NC(=O)/C(Cl)=C1/Sc2ccccc2NC1=O
85.4

Indicate its recorded growth; the molecule in question is O=C1c2ccccc2CCC1(Br)Br
-95.2

Please report growth for the following molecule: S=C1SCN(CCc2ccccc2)CN1CCc1ccccc1
110

Look up growth of O=[N+]([O-])c1cc(S(=O)(=O)Nc2ccccc2)ccc1Cl and report it.
94.2

Item O=C1c2cccc3cc([N+](=O)[O-])cc(c23)C(=O)N1CCN1CCCC1 : provide growth
-57.9

Annotate the molecule Nc1nc(N)c2cc(Sc3ccc4ccccc4c3)ccc2n1 with its measured growth.
28.2

Consider the molecule O=C1C=CC(=O)N1c1ccc(N2C(=O)C=CC2=O)cc1 . State its measured growth.
92.2

For the molecule O=C(CNS(=O)(=O)Cc1ccccc1)NNc1ccccc1 , give its measured growth value.
36.7
